These data points were gathered from PubChem BioAssay (NCI).

Test system: SF-268 CNS
protocol.summary: NCI tumour cell line growth inhibition, 48 h
For each of the molecules below, state its TGI.

(Q) Quick check: TGI of `N#C/C(=C\c1ccc2ccccc2c1)C(=O)c1ccccc1` ?
(A) > 100 µM

(Q) Quick check: TGI of `COc1cc(Cl)cc(-c2nn(-c3cccc(NC(=O)c4ccc(N5CCOCC5)c(C(F)(F)F)c4)c3)cc2-c2ccncc2)c1` ?
(A) > 100 µM

(Q) Quick check: TGI of `CC(=NNC(=S)Nc1ccccc1)c1cccc(C(C)=NNC(=S)Nc2ccccc2)n1` ?
(A) > 100 µM

(Q) Quick check: TGI of Cc1ccc(C2=CC(=O)OC(C[P+](c3ccccc3)(c3ccccc3)c3ccccc3)(c3ccccc3)O2)cc1 (stereo not given) ?
(A) 38.2 µM

(Q) Quick check: TGI of `c1ccc2c(OCCSCCCCCCCCCCSCCOc3cccc4ccccc34)cccc2c1` ?
(A) > 100 µM

---

Test system: SF-539 CNS
protocol.summary: NCI tumour cell line growth inhibition, 48 h
For each of the molecules below, state its TGI.

(Q) Quick check: TGI of O=C1NC2c3c(I)sc(I)c3C(O)C2O1 (stereo not given) ?
(A) > 100 µM

(Q) Quick check: TGI of `COc1cc(OC)cc(C(=O)CC(=O)c2cc(OC)cc(OC)c2)c1` ?
(A) > 100 µM

(Q) Quick check: TGI of `N#C/C(=C\c1ccc2ccccc2c1)C(=O)c1ccccc1` ?
(A) > 100 µM

(Q) Quick check: TGI of `Nc1c(C(=O)N/N=C/c2ccccc2)sc(=S)n1-c1ccccc1` ?
(A) > 100 µM

(Q) Quick check: TGI of `COc1cc(N(CCC#N)CCC#N)ccc1/C(N=Nc1ccc(Cl)cc1)=N/NC(=O)c1cc(Br)ccc1O` ?
(A) > 150 µg/mL

(Q) Quick check: TGI of `Oc1cc(Cl)cc2cccnc12` ?
(A) > 67 µM

(Q) Quick check: TGI of `CC(=NNC(=S)Nc1ccccc1)c1cccc(C(C)=NNC(=S)Nc2ccccc2)n1` ?
(A) 12.5 µM

(Q) Quick check: TGI of `CCCNc1ncnc2c1ncn2C` ?
(A) > 100 µM

(Q) Quick check: TGI of `O=C1c2cc(-c3ccccc3)cnc2S(=O)(=O)N1c1ccc(Br)cc1` ?
(A) 87.2 µM

(Q) Quick check: TGI of `O=[N+]([O-])C(=C(Nc1cccc2cccnc12)Nc1cccc2cccnc12)C(Cl)=C(Cl)Cl` ?
(A) > 100 µM

---

Test system: MOLT-4 leukemia
protocol.summary: NCI tumour cell line growth inhibition, 48 h
experimental.endpoint: TGI

(Q) Quick check: TGI of `Nc1c(C(=O)N/N=C/c2ccccc2)sc(=S)n1-c1ccccc1` ?
(A) > 100 µM

(Q) Quick check: TGI of Cc1ccc(/C=N\NC2c3cc(Cl)ccc3Nc3nc(=O)[nH]c(C)c32)cc1 (configuration not stated) ?
(A) > 100 µM

(Q) Quick check: TGI of `O=C1CCC(c2ccccc2)=NN1c1nsc2ccccc12` ?
(A) > 100 µM

(Q) Quick check: TGI of `CN(C)C1CCN(C(=O)c2ccc(NC(=O)Nc3ccc(-c4nc(N5CCOCC5)c5cccn5n4)cc3)cc2)CC1` ?
(A) 2.52 µM

(Q) Quick check: TGI of `Clc1cc2c(c(CSc3nc4ccccc4n4cccc34)c1)OCOC2` ?
(A) > 100 µM

(Q) Quick check: TGI of `CN1CCN(c2ccc(Nc3cc(-c4cccc(-n5ccc6cc(C7CC7)cc(F)c6c5=O)c4CO)cn(C)c3=O)nc2)CC1` ?
(A) 19.1 µM

(Q) Quick check: TGI of `O=C(/C(=C/c1ccc(Cl)cc1)c1ccccc1)c1ccccc1` ?
(A) 47 µM

(Q) Quick check: TGI of COc1ccc(C2OC(c3ccncc3)=NN2C)cc1F (configuration not stated) ?
(A) > 100 µM

(Q) Quick check: TGI of `c1ccc2c(OCCSCCCCCCCCCCSCCOc3cccc4ccccc34)cccc2c1` ?
(A) > 100 µM

(Q) Quick check: TGI of `CCCCCC#CCOC(=O)C(=[N+]=[N-])P(=O)(c1ccccc1)c1ccccc1` ?
(A) > 10 µM

(Q) Quick check: TGI of `COC(=O)/C=C\C(C#N)(C#N)N=Cc1ccc(C)cc1` ?
(A) 3.77 µM

(Q) Quick check: TGI of Cc1c2n(c(=O)[nH]c1=O)C1OC(CO)C(N=[N+]=[N-])C1O2 (configuration not stated) ?
(A) > 100 µM

(Q) Quick check: TGI of CN1C(=O)c2ccccc2NC(=O)C12O[C@@H]2c1ccccc1 (some centres not stated) ?
(A) > 100 µM

(Q) Quick check: TGI of `S=c1[nH]c(=S)c2cc3ccccc3nc2[nH]1` ?
(A) > 100 µM

(Q) Quick check: TGI of `CCCCCCCCCCCC[S+](C)C` ?
(A) 28.2 µM

(Q) Quick check: TGI of Cc1cccc(C)c1NC(=O)C(Cc1c[nH]c2ccccc12)NC(=O)OCc1ccccc1 (configuration not stated) ?
(A) 63.7 µM

(Q) Quick check: TGI of `CSC1=N/C(=C\c2ccc(C)cc2)C(=O)N1CN1CCCCC1` ?
(A) > 100 µM

(Q) Quick check: TGI of `O=C(O)COc1ccccc1C(=O)Nc1ccccc1` ?
(A) > 100 µM

(Q) Quick check: TGI of `N[C@@H](Cc1ccccc1)C(=O)N1CCC[C@@H]1P(=O)(Oc1ccccc1)Oc1ccccc1` ?
(A) > 100 µM

(Q) Quick check: TGI of `NC1CCN(Cc2ccccc2)CC1` ?
(A) > 100 µM

(Q) Quick check: TGI of CCN1CN(c2ccccc2)C2(CCN(CC3COc4ccccc4O3)CC2)C1=O (configuration not stated) ?
(A) 57.6 µM

(Q) Quick check: TGI of `Cc1nc(C)c(N2CCN([N+](=O)[O-])CC2)c(=O)[nH]1` ?
(A) > 100 µM
